Target: PKA catalytic subunit (Bos taurus, UniProt P00517)
Construct: native catalytic subunit purified from bovine heart PKA (P5511) by column chromatography
Experiment: fluorescence polarisation competition with compound […]
assay metric: pIC50
Convention used: pIC50 is expressed as -log10 of the molar concentration.

[ask] Fill blank: measured pIC50 of the compound CC1CNCCN1S(=O)(=O)c1cccc2cnccc12 (stereo not shown) [H‐7] is ____.
[reply] 5.41
